Listed here: items and their measured viability, T/C.
system: 233499-124-R-J3-PDC complex spheroid growth; test: Anticancer human tumor 233499-124-R-J3-PDC patient-derived colon adenocarcinoma cell line growth inhibition [AhR]; details: second compound 0.316 µM; first compound 0.000316 µM; hits give low values;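 also: spheroids exposed to agents for seven days before reading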

These solved cases illustrate the format of a correct answer.
{"columns": ["molecule", "viability, T/C"],
 "data": [
  ["Cn1ncnc1C1c2n[nH]c(=O)c3cc(F)cc(c23)NC1c1ccc(F)cc1 (stereo unspecified) + Cc1cncc(-c2nc(NCCc3c[nH]c4ccccc34)c3ncn(C(C)C)c3n2)c1", "88.7%"],
  ["Cn1ncnc1C1c2n[nH]c(=O)c3cc(F)cc(c23)NC1c1ccc(F)cc1 (stereo unspecified) + Cc1ccccc1N=Nc1ccc(NC(=O)c2ccnn2C)c(C)c1", "93%"],
  ["CC[C@@]1(O)C(=O)OCc2c1cc1n(c2=O)Cc2cc3c(CN(C)C)c(O)ccc3nc2-1 + CC(CO)NC(=O)c1cc(-c2ccc(Cl)cc2)nn(-c2cnn(C)c2)c1=O", "87.4%"],
  ["CC[C@@]1(O)C(=O)OCc2c1cc1n(c2=O)Cc2cc3c(CN(C)C)c(O)ccc3nc2-1 + Cc1cncc(-c2nc(NCCc3c[nH]c4ccccc34)c3ncn(C(C)C)c3n2)c1", "92.1%"],
  ["CC[C@@]1(O)C(=O)OCc2c1cc1n(c2=O)Cc2cc3c(CN(C)C)c(O)ccc3nc2-1 + Cc1ccccc1N=Nc1ccc(NC(=O)c2ccnn2C)c(C)c1", "114%"]
]}

Now for another entry.
// query viability, T/C value for entry Cn1ncnc1C1c2n[nH]c(=O)c3cc(F)cc(c23)NC1c1ccc(F)cc1 (stereo unspecified) + CC(CO)NC(=O)c1cc(-c2ccc(Cl)cc2)nn(-c2cnn(C)c2)c1=O
90.6%
